Cited source for all entries: PubChem BioAssay (NCI)

system: A549/ATCC NSCLC; assay: NCI-60 one-dose screen, 48 h; conditions: 10 µM unless noted
The panel holds about 83,000 compounds, 20% with a hit somewhere; the sample as a whole holds those more often. Calls of active or inactive are those of the source. Rule for the calls: active = growth percent below 10; inactive = the rest.
Outcome (select one): 1 for active, -1 for inactive

Q: How did this test come out for `CC[C@H](C)[C@@H](C(=O)OC)n1cc(CNC(=O)[C@@H](Cc2ccccc2)NC(=O)OCc2ccccc2)nn1` ?
A: -1

Q: How did this test come out for `N#C/C(=C\c1c(-c2ccccc2)[nH]c2ccccc12)S(=O)(=O)c1ccccc1` ?
A: -1

Q: How did this test come out for `COc1cccc(/C(C#N)=C/c2nc3c(N4CCOCC4)nc(Cl)nc3n2C)c1` ?
A: -1

Q: How did this test come out for `Nc1no[n+]([O-])c1-c1nnc2c(n1)-c1ccccc1C2=O` ?
A: -1

Q: How did this test come out for COc1ccc(N2C(=O)CC(c3cc(OC)c(OC)c(OC)c3)C3C2=NC(=O)N3C)cc1 (centres undefined) ?
A: -1

Q: How did this test come out for `CN1CCN(Cc2ccc(NC(=O)c3cncc(C#Cc4nc(N)nc5[nH]ncc45)c3)cc2C(F)(F)F)CC1` ?
A: -1

Q: How did this test come out for `O=C(Nc1ccc(C23CC4CC(CC(c5ccccc5)(C4)C2)C3)cc1)c1cccs1` ?
A: -1

Q: How did this test come out for `CN1CCN(Cc2ccc(C(=O)Nc3cncc(C#Cc4cnc(N)c5ccccc45)c3)cc2C(F)(F)F)CC1` ?
A: 1

Q: How did this test come out for `COC(=O)C1=Nc2ccc(F)cc2/C1=C/c1sc(=S)[nH]c1O` ?
A: -1
